Data provenance is paper PMC8308911.

# Method Notes: Pharmacokinetics after single oral administration of the SaTSS standardized fraction (plasma, HPLC, PKSolver)
# Type: in vivo, ICR mice
# Condition Label: ICR, mouse, plasma; oral single dose 400 mg/kg SaTSS fraction, 3.3 min, n = 10
Readout Type: concentration at 3.3 min (ng/mL)
Give bare numbers, in ng/mL.

Query (molecule): COc1c(C)cc2c(C(C)C)cc(C(=O)O)c(O)c2c1O ; field requested: concentration at 3.3 min 9920

---

# Method Notes: Pharmacokinetics after single intravenous administration of the SaTSS standardized fraction (plasma, HPLC, PKSolver)
# Format: in vivo, ICR mice
# Condition Label: ICR, mouse, plasma; intravenous single dose 400 mg/kg SaTES fraction, 2.0 min, n = 3
Readout Type: concentration at 2 min (ng/mL)
Give bare numbers, in ng/mL.

concentration at 2 min lookup needed for COc1c(C)cc2c(C(C)C)cc(C(=O)O)c(O)c2c1O , thanks. 40900
